For each entry below, report its t ½ value.
# measured target: T1, serum resistance-associated protein (SRA) from Trypanosoma brucei rhodesiense, recombinant SRA (SEQ ID NO: … (Trypanosoma brucei rhodesiense, UniProt O96637 31-274))
# T1 construct: also called SRA protein
# T1 sequence: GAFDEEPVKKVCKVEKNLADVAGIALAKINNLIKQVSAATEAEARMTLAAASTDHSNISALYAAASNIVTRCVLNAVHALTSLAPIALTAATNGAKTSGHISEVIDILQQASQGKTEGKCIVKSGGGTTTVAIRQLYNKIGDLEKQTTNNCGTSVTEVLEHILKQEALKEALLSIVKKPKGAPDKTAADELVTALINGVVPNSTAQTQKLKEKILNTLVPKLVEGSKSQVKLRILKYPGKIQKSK
# assay procedure: SPR, mAb captured, 25C, pH 7.4

Field request: t ½ | item: H1H10058P (antibody, V domains shown, Fully human antibody with human IgG1 Fc (prefix H1H)) VH: EVQLVESGGGLVQPGGSLRLSCAASGFTFNDFFMSWVRQAPGKGLEWVANLNQDGSERHYVDSVKGRFTISRDNAKNSLSLQMNSLRVEDTAVYYCAREGGDSWGQGTLVTVSS VL: DIVMTQSPDSLAVSLGERVTINCKSSQSILYSANNKDYLAWFHQKPGQPPKLLIYWASIRESGVPDRISGSGSGTDFTLTISSLQAEDVAVYYCQQYYLFPPTFGQGTKVEIK ≥ 231 min

Field request: t ½ | item: H1H10031P (antibody, V domains shown, Fully human antibody with human IgG1 Fc (prefix H1H)) VH: EVQLVESGGNVVRPGGSLRLSCSGSGFAFENYGMSWVRQGPGKGLEWVSNINWNGGSLNYVDSVKGRFTISRDNAKNSLYLQMNSLRAEDTALYYCARVIVYGMDVWGQGTTVTVSS VL: DIQMTQSPSSLSASVGDRVTITCRASQGIRNGLGWFQQKPGKAPKRLIYATSSLQSGVPSRFSGSGSGTEFTLTISSLQPEDFATYYCLQSNSYPWTFGQGTKVEIK ≥ 231 min

Field request: t ½ | item: H1H10027P (antibody, V domains shown, Fully human antibody with human IgG1 Fc (prefix H1H)) VH: EVQLVESGGALVQPGRSLTLSCAASGFTFDDYTMHWVRQTPGKGLEWVSGILWNSDNLVYADSVKGRFTISRDNAKNSLYLQMNSLRVEDTALYYCTKEIDYLTLGGNAFDVWGQGTMVTVSS VL: DIQMTQSPSTLSASVGDRITITCRASQNINYWLAWYQQKPGKAPKLLIYKASSLAGGVPSRFSGSGSGTDFTLTINSLQPDDFATYYCQKYNTYSLNFGGGTKVEIK ≥ 231 min
